Kindly state pIC50 for each of the entries shown.
TARGET_UNDER_TEST: HLA-B*5401 (human)
EXPERIMENT_DESCRIPTION: competition vs 125I probe peptide, purified HLA
Answers are plain numbers, as −log10 of the molar value.

Example entries begin here.
# BINDER, OBSERVED_RESULT
records = [
    ("FPKAGLLIIV [MAGE3.196.F1 FPKAGLLIIV]", 8.96),
    ("FPKAGLLI [MAGE3.196.F1I8 FPKAGLLI]", 7.34),
    ("FPTTMNYPL [MAGE3.71.F1 FPTTMNYPL]", 8.52),
]

Batch lookup, pIC50 per entry.
1. FPQGASSI [MAGE3.64.F1 FPQGASSI]
2. FPIGHLYII [MAGE3.170.F1I9 FPIGHLYII]
3. FPIGHLYIFA [MAGE3.170.F1 FPIGHLYIFA]
4. FPHISYPPI [MAGE3.296.F1I9 FPHISYPPI]
5. FPTTMNYPI [MAGE3.71.F1I9 FPTTMNYPI]
6. FPRALIETSYI [MAGE2.274.F1I11 FPRALIETSYI]
7. FPRALVETSYI [MAGE3.274.F1I11 FPRALVETSYI]

1. 6.40
2. 9.22
3. 9.40
4. 8.85
5. 8.82
6. 6.90
7. 7.23
